Values from patent US8394794B2

Biological target: Bcl-XL (Homo sapiens, UniProt Q07817)
Construct: made in house
Sequence (Q07817 whole entry, species assumed): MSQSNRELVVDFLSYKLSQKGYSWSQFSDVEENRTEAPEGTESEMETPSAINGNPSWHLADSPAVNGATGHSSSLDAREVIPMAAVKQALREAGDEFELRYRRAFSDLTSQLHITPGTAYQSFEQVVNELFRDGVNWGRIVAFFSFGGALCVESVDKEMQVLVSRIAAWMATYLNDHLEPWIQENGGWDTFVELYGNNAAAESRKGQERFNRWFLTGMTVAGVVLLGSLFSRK
Test: Fluorescence polarization (FP) competition binding assay, Bcl-XL
Conditions: Table 3; mean of two independent experiments with triplicate in each; read-out: Ki ± SEM Bcl-XL
Assay Endpoint: Ki
Param answer (str): number followed by unit.

### Prompt Can you share its Ki? I mean this compound: CCOC(=O)C1=C(N)Oc2ccc(Br)cc2C1C(C)(C#N)C(=O)OCC (stereo not shown)
### Response 55.4 µM

* * *

Experiment: Half-life under varying pH conditions
Type: physicochemical
Conditions: buffer; pH 8.0
Assay Endpoint: half-life (h)
Answers are plain numbers, in h.

### Prompt Given the molecule CCOC(=O)C1=C(N)Oc2ccc(Br)cc2C1C(C#N)C(=O)OCC (stereo not shown) [HA 14-1, reference compound] , what is its reported half-life?
### Response 1.22
